The measured values listed here are drawn from patent US9790198B2.

study.target: UniProtKB O14842
Sequence (O14842 whole entry): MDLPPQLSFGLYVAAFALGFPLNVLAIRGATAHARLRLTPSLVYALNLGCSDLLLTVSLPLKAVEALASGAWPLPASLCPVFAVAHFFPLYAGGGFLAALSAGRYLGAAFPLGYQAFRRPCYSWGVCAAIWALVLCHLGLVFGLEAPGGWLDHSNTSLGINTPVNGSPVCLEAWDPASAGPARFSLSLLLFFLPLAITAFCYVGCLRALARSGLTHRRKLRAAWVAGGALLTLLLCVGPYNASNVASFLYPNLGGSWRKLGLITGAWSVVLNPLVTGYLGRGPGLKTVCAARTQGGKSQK
measurement.notes: GPR40 Calcium Flux Assay
Format: cell-based
condition.summary: transfected HEK293 cells stably expressing human GPR40, mean data, read-out: hGPR40 Ca^2+ Assay EC50
pEC50: −log10 of the molar value.

smiles.structure	pEC50
Cc1ccccc1-c1csc2ccc(COc3ccc([C@]4(CC(=O)O)C[C@@H](O)C4)cc3)cc12	7.85
